TEST SYSTEM: PrgB246-558 (Enterococcus faecalis, UniProt Q04112)
EXPERIMENTAL READOUT: pKd
pKd field: float, defined as -log10 of concentration (mol/L).

Write down pKd measured for item O=P(O)(O)OCC(O)CO (stereo not shown) [glycerol phosphate]
3.56

====

TEST SYSTEM: PrgB188-1233 (Enterococcus faecalis)
ASSAY SUMMARY: isothermal titration calorimetry
Assay type: binding
EXPERIMENTAL READOUT: Kd (µM)
The reply should be a number in µM, with the unit left off.

Write down Kd measured for item O=P(O)(O)OCC(O)CO (stereo not shown) [glycerol phosphate]
309
